System: BS1723 B. subtilis BS168 WT wild type
ASSAY COMMENT: broth dilution MIC, B. subtilis BS1723
Format: cell-based
CONDITION NOTES: Bacillus subtilis, BS1723 B. subtilis BS168 WT wild type; read-out: MIC
From the text: We have collected MIC data for a total of 50 novel macrolides that this platform has produced against over 21 unique strains of B. subtilis, E. coli, S. aureus, S. pneumoniae, and H. influenzae, including several multidrug-resistant strains, with a special focus on macrolide resistant mechanisms (vide supra). Azithromycin was included as a control macrolide. CLSI standard procedures for broth dilution MIC determination were used. […] These genotypes can be constitutive or inducible. […]
Examples of compounds with documented MIC follow.

{"COMPOUND": "CCC[C@@H]1C[C@@H](C(=O)N[C@@H]([C@H]2O[C@H](SC)[C@H](O)[C@@H](O)[C@H]2O)[C@H](C)Cl)N(C)C1 [Clindamycin, clindamycin, reference compound]", "TARGET OF ASSAY": "BS1723 B. subtilis BS168 WT wild type", "RESULT OPERATOR": "=", "MIC, µg/mL": 1}
{"COMPOUND": "CC[C@H]1OC(=O)[C@](C)(F)C(=O)C[C@@H](O[C@@H]2OC(C)CC(N(C)C)C2O)[C@](C)(OC)C[C@@H](C)CN[C@H](C)[C@H]2N(CCCCn3cc(-c4cccc(N)c4)nn3)C(=O)O[C@]12C (stereo partly shown)", "TARGET OF ASSAY": "BS1723 B. subtilis BS168 WT wild type", "RESULT OPERATOR": ">", "MIC, µg/mL": 32}
{"COMPOUND": "CC[C@H]1OC(=O)[C@H](C)C(=O)C[C@@H](O[C@@H]2OC(C)CC(N(C)C)C2O)[C@@](C)(OC)C[C@@H](C)CN(C(C)=O)[C@H](C)[C@H]2N(CCCCn3cc(-c4nccs4)nn3)C(=O)O[C@]12C (stereo partly shown)", "TARGET OF ASSAY": "BS1723 B. subtilis BS168 WT wild type", "RESULT OPERATOR": ">", "MIC, µg/mL": 32}
{"COMPOUND": "CC[C@H]1OC(=O)[C@H](C)[C@@H](O[C@H]2C[C@@](C)(OC)[C@@H](O)[C@H](C)O2)[C@H](C)[C@@H](O[C@@H]2O[C@H](C)C[C@H](N(C)C)[C@H]2O)[C@](C)(O)C[C@@H](C)CN(C)[C@H](C)[C@@H](O)[C@]1(C)O [Azithromycin, reference compound]", "TARGET OF ASSAY": "BS1723 B. subtilis BS168 WT wild type", "RESULT OPERATOR": "=", "MIC, µg/mL": 0.5}

###

Test system: Spn1537 S. pneumoniae ermB positive mefA positive
Examples of compounds with documented MIC follow.

{"COMPOUND": "CC[C@H]1OC(=O)[C@H](C)C(=O)[C@H](C)[C@@H](O[C@@H]2OC(C)CC(N(C)C)C2O)[C@](C)(OC)C[C@@H](C)CN[C@H](C)[C@H]2N(CCCCn3cc(-c4cccc(N)c4)nn3)C(=O)O[C@]12C (stereo partly drawn)", "MIC": "32 µg/mL"}
{"COMPOUND": "CC[C@H]1OC(=O)[C@H](C)C(=O)[C@H](C)[C@@H](O[C@@H]2OC(C)CC(N(C)C)C2O)[C@](C)(OC)C[C@@H](C)CN[C@H](C)[C@H]2N(CCCCn3cc(-c4cccc(N)n4)nn3)C(=O)O[C@]12C (stereo partly drawn)", "MIC": "> 32 µg/mL"}
{"COMPOUND": "CC[C@H]1OC(=O)C(C)C(=O)[C@@H](C)[C@@H](O[C@@H]2OC(C)CC(N(C)C)C2O)[C@](C)(OC)C[C@@H](C)CN[C@H](C)[C@H]2N(CCCCn3cc(-c4ccccn4)nn3)C(=O)O[C@]12C (stereo partly drawn)", "MIC": "> 32 µg/mL"}
{"COMPOUND": "CC[C@H]1OC(=O)[C@H](C)C(=O)C[C@@H](O[C@@H]2OC(C)CC(N(C)C)C2O)[C@](C)(OC)C[C@@H](C)C(=O)N[C@H](C)[C@H]2N(CCCCn3cc(-c4ccccn4)nn3)C(=O)O[C@]12C (stereo partly drawn)", "MIC": "> 32 µg/mL"}
{"COMPOUND": "CC[C@H]1OC(=O)C(C)(F)C(=O)[C@@H](C)[C@@H](O[C@@H]2OC(C)CC(N(C)C)C2O)[C@](C)(OC)C[C@@H](C)CN(C)[C@H](C)[C@H]2N(CCCCn3cc(-c4nccs4)nn3)C(=O)O[C@]12C (stereo partly drawn)", "MIC": "> 32 µg/mL"}
{"COMPOUND": "CCC[C@@H]1C[C@@H](C(=O)N[C@@H]([C@H]2O[C@H](SC)[C@H](O)[C@@H](O)[C@H]2O)[C@H](C)Cl)N(C)C1 [Clindamycin, clindamycin, reference compound]", "MIC": "> 32 µg/mL"}
{"COMPOUND": "CC[C@H]1OC(=O)C(C)(F)C(=O)[C@@H](C)[C@@H](O[C@@H]2OC(C)CC(N(C)C)C2O)[C@](C)(OC)C[C@@H](C)CN[C@H](C)[C@H]2N(CCCCn3cc(-c4cccc(N)c4)nn3)C(=O)O[C@]12C (stereo partly drawn)", "MIC": "> 32 µg/mL"}
{"COMPOUND": "CC[C@H]1OC(=O)C(C)(F)C(=O)[C@@H](C)[C@@H](O[C@@H]2OC(C)CC(N(C)C)C2O)[C@](C)(OC)C[C@@H](C)CN[C@H](C)[C@H]2N(CCCCn3cc(-c4nccs4)nn3)C(=O)O[C@]12C (stereo partly drawn)", "MIC": "> 32 µg/mL"}
{"COMPOUND": "CC[C@H]1OC(=O)C(C)(F)C(=O)[C@H](C)[C@@H](O[C@@H]2OC(C)CC(N(C)C)C2O)[C@](C)(OC)C[C@@H](C)CN[C@H](C)[C@H]2N(CCCCn3cc(-c4cccc(N)c4)nn3)C(=O)O[C@]12C (stereo partly drawn)", "MIC": "32 µg/mL"}

The values you see were collected from patent US9982005B2.
